# maps each entry to its pEC50
- testedOn: Toll-like receptor 2 (Homo sapiens)
- Sequence (O60603 whole entry): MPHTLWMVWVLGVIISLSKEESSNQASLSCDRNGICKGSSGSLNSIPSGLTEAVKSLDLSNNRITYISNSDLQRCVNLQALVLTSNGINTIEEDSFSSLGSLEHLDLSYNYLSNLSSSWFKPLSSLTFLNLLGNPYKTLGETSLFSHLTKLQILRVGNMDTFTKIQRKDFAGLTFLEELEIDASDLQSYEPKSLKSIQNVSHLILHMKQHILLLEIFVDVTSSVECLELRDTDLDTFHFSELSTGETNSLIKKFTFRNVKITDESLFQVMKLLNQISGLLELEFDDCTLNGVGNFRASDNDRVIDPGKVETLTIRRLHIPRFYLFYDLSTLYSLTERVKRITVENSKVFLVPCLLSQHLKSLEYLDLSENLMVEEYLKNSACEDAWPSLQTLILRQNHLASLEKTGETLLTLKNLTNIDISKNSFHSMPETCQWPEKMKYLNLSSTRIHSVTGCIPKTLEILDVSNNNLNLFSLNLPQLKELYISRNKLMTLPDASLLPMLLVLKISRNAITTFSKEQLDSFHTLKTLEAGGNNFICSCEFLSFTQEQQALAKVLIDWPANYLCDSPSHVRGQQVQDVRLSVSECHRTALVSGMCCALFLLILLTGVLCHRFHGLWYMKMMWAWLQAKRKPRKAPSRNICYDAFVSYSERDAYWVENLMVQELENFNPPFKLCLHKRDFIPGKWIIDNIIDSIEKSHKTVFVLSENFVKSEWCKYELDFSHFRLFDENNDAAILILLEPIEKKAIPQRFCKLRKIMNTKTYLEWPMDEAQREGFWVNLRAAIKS
- assayText: Agonist activity at TLR2 in HEK-Blue cells incubated for 24 hrs by Quanti-Blue based SEAP assay
// pEC50 here means minus log10 of the molar concentration (mol/L)

Some entries whose results are on file:
CCOC(=O)c1c(NC(=O)Nc2ccccc2)sc2c1CCC2 = 4.92
CCOC(=O)c1c(NC(=S)Nc2ccc(F)cc2)sc2c1CCCC2 = 4.92
CCOC(=O)c1c(N=C(S)Nc2ccccc2)sc2c1CCCCC2 = 4.54
COC(=O)c1c(NC(=S)Nc2cccc3ccccc23)sc2c1CCC2 = 5.45
COC(=O)c1c(NC(=S)Nc2cccc3ccccc23)sc2c1CCCC2 = 5.13
CCOC(=O)c1c(NC(=S)Nc2cccc3ccccc23)sc2c1CCCCC2 = 5.63
CC(C)OC(=O)c1c(NC(=S)Nc2ccc(Br)c3ccccc23)sc2c1CCC2 = 7.41
COC(=O)c1c(NC(=S)Nc2ccc(C(F)(F)F)cc2)sc2c1CCCC2 = 4.47

Reported pEC50, compound CCOC(=O)c1c(NC(=O)Nc2ccc(C)cc2)sc2c1CCC2 : ____ 4.92

Here is the next compound: COC(=O)c1c(NC(=S)Nc2ccc(C)cc2)sc2c1CCCC2 4.99

Here is the next compound: CCOC(=O)c1c(NC(=S)Nc2ccc(Cl)cc2)sc2c1CCC2 5.60

Here is the next compound: CC(C)COC(=O)c1c(NC(=S)Nc2cccc3ccccc23)sc2c1CCC2 4.55

Here is the next compound: CC(C)OC(=O)c1c(NC(=S)Nc2ccc(F)c3ccccc23)sc2c1CCCC2 7.46

Here is the next compound: CCOC(=O)c1c(NC(=O)Nc2cccc3ccccc23)sc2c1CCC2 5.12

Here is the next compound: CCOC(=O)c1c(N=C(S)Nc2ccc(F)cc2)sc2c1CCC2 4.88

Here is the next compound: CCOC(=O)c1c(NC(=S)Nc2ccc(C)cc2)sc2c1CCCC2 5.06

Here is the next compound: CCOC(=O)c1c(NC(=S)Nc2cccc3ccccc23)sc2c1CCC(C)C2 (stereo not drawn) 5.76

Here is the next compound: CCOC(=O)c1c(NC(=O)Nc2ccccc2)sc2c1CCCCC2 4.93

Here is the next compound: CCOC(=O)c1c(NC(=S)Nc2ccc(-c3ccccc3)cc2)sc2c1CCC2 5.15

Here is the next compound: CC(C)OC(=O)c1c(NC(=S)Nc2cccc3ccccc23)sc2c1CCCC2 6.85

Here is the next compound: CCOC(=O)c1c(NC(=S)Nc2ccc(C(F)(F)F)cc2)sc2c1CCCC2 4.92

Here is the next compound: CC(C)COC(=O)c1c(NC(=S)Nc2cccc3ccccc23)sc2c1CCCC2 4.52

Here is the next compound: CCOC(=O)c1c(NC(=O)Nc2ccc(C)cc2)sc2c1CCCC2 4.84

Here is the next compound: COC(=O)c1c(NC(=S)Nc2ccccc2)sc2c1CCC2 4.85

* * *

- assayText: Cytotoxicity against HEK-Blue TLR2 cells incubated for 24 hrs by CCK-8 assay
- Format: toxicity, cell-based, HEK-Blue hTLR2
- runParameters: human
recordedEndpoint: CC50 at 24 h

Reported CC50 at 24 h, molecule CC(C)OC(=O)c1c(NC(=S)Nc2ccc(F)c3ccccc23)sc2c1CCC2 : ____ > 100 µM
